All figures here come from ChEMBL document CHEMBL1201862.

molecular target: Cytochrome P450 2C19 (Homo sapiens, UniProt P33261); assay: Cytochrome panel assay with activity outcomes. Panel member name: p450-cyp2c19 Compounds with AC50 equal or less than 10 uM are considered active; format: functional; settings: read-out: AC50
Sequence (P33261 whole entry): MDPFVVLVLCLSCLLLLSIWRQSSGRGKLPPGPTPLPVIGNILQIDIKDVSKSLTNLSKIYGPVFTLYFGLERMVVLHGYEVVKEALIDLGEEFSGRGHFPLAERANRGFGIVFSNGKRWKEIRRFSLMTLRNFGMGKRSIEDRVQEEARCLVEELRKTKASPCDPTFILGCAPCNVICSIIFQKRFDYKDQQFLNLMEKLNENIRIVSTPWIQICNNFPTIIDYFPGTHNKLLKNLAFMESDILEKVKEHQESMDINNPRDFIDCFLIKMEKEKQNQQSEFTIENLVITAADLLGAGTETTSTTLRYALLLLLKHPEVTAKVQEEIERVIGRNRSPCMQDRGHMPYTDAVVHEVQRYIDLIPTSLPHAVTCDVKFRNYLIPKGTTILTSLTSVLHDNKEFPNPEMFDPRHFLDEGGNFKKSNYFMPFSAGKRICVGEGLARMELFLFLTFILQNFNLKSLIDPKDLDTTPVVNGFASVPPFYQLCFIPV
AC50 for assorted compounds

As a guide, the following entries are already answered.
{"columns": ["compound", "endpoint-label", "observed-measurement"],
 "data": [
  ["CCOc1cc(NC(=O)c2ccccc2[N+](=O)[O-])c(OCC)cc1NC(=O)CC(C)C", "AC50", "0.0112 µM (inconclusive)"],
  ["CCN(CC)C(=O)C1=C(C)N=C(S)NC1c1cn(-c2ccccc2)nc1-c1ccc(Cl)cc1 (configuration not stated)", "AC50", "17.8 µM (inconclusive)"],
  ["CCC(CC)C(=O)Nc1c2c(nn1-c1ccc(OC)cc1)CS(=O)(=O)C2", "AC50", "35.5 µM (inconclusive)"],
  ["COc1ccc(NC(=O)c2ccc(-n3cccn3)nc2)c(OC)c1", "AC50", "14.1 µM (inconclusive)"],
  ["Cc1ccc2nc(Nc3ccccc3O)nc(-c3ccccc3)c2c1", "AC50", "2.24 µM (inconclusive)"]
]}

Returns the measured AC50 for the input compound. Input: `Cn1c(CN2CCOCC2)nnc1SCc1ccccc1`
20 µM (inconclusive)

Returns the measured AC50 for the input compound. Input: `CC1(C)[C@@H]2CC[C@]1(C)[C@@H](OC(=O)/C=C\c1ccccc1)C2`
0.00398 µM (inconclusive)

Returns the measured AC50 for the input compound. Input: COc1ccccc1CNC(=O)C1CC(=O)N(C2CCCC2)C1 (configuration not stated)
28.2 µM (inconclusive)

Returns the measured AC50 for the input compound. Input: `CN1CCN(c2ncc3nc(CCc4ccccc4)c(=O)n(Cc4cccs4)c3n2)CC1`
39.8 µM (inconclusive)

Returns the measured AC50 for the input compound. Input: `CCS(=O)(=O)N1CCC(C(=O)NCc2ccc(F)cc2Cl)CC1`
39.8 µM (inconclusive)

Returns the measured AC50 for the input compound. Input: CCc1ccc(NC(=O)C[S+]([O-])CC(=O)NCCCc2ccccc2)cc1 (configuration not stated)
11.2 µM (inconclusive)

Returns the measured AC50 for the input compound. Input: `CCCCNC(=O)CCn1c(=S)[nH]c2cc3c(cc2c1=O)OCO3`
3.55 µM (inconclusive)

###

EC50 for assorted compounds
test: Luminescence Cell-Based Dose Response HTS to Identify Activators of Luciferase Translation or Activity in H4 […] Cells. [Related pubchem assays: 1829 (Project Summary), 1814 (Primary HTS)]; format: functional
Activity calls are given as the source filed them.

As a guide, the following entries are already answered.
{"columns": ["smiles-text", "EC50"],
 "data": [
  ["Cc1nc2sc(C(=O)c3ccccc3)c(N)c2c2c1CCCC2", "6.25 µM (active)"],
  ["Clc1ccc(CONc2ncnc3nonc23)c(Cl)c1", "< 0.1 µM (inconclusive)"],
  ["O=C(/C=C/N1CCOCC1)c1ccc(-c2ccccc2)cc1", "36.8 µM (active)"],
  ["O=C1/C(=C/Nc2cccc(O)c2)c2ccccc2C(=O)N1c1ccc2c(c1)OCO2", "> 120 µM (not active)"]
]}

Moving on to the next compound.
Returns the measured EC50 for the input compound. Input: `O=C(CSc1nnnn1-c1ccc(Cl)cc1)NC(=O)Nc1ccc2c(c1)OCCO2`
45.7 µM (active)
